assay: relative permittivity at zero frequency (dimensionless); details: 298.15 K; 101.33 kPa; Liquid; AC method
Values of relative permittivity at zero frequency strictly less than 7 map to label 1, and values of at least 7 map to label 0.

>>> classification("COCCOCCOC [2,5,8-trioxanonane]")
"label 0"
>>> classification("CCCCCCC [heptane]")
"label 1"
>>> classification("COCCOCCOCCOCCOC [2,5,8,11,14-pentaoxapentadecane]")
"label 0"

Switching to the query record.
Task item: is_below(relative permittivity at zero frequency, 7) for COCCOCCOCCOC [2,5,8,11-tetraoxadodecane] ?
Reply: label 0

====

conditions: 308.15 K; 101.33 kPa; Liquid; Vibrating tube method
Hi there, I'd appreciate the recorded mass density for every entry that follows.
Give bare numbers, in kg/m3.

>>> assay_value("COCCOC")
850.06
>>> assay_value("COCCOCCOCCOC")
971.07

Would you be so kind as to report mass density for each listed record?
1. COCCOCCOC
2. CCCCCCC
3. COCCOCCOCCOCCOC

Reply:
1: 929.36; 2: 671.03; 3: 997.27
